// provenance: ChEMBL document CHEMBL3392952

# Procedure details: Dissociation constant, pKa of the compound
# Assay type: physicochemical
Observation type: pKa
Numbers only.

Known pKa results, listed for orientation:
>>> print(df.to_string())
                  compound_structure_string  observation_type  experimental_result
0  N#Cc1c(-c2ccc(C(=O)O)cc2)c2c([nH]c1=O)-c1cccc(O)c1CC2               pKa                  4.4
1  N#Cc1c(-c2ccc(C(=O)NS(=O)(=O)c3ccccc3)cc2)c2c([nH]c1=O)-c1ccccc1OC2               pKa                    5
2  CS(=O)(=O)NC(=O)c1ccc(-c2c3c([nH]c(=O)c2C#N)-c2ccccc2OC3)cc1               pKa                  3.9

Parameter requested: pKa. Apply to each item below.
1. N#Cc1c(-c2ccc(C(=O)O)cc2)c2c([nH]c1=O)-c1cccc(-c3cn[nH]c3)c1CC2
2. COc1cccc2c1CCc1c-2[nH]c(=O)c(C#N)c1-c1ccc(C(=O)O)cc1
3. CC(C)c1ccc(COc2cccc3c2CCc2c-3[nH]c(=O)c(C#N)c2-c2ccc(C(=O)O)cc2)cc1

4.4
4.4
4.4

###

# Tgt: UniProtKB P9WKE1
# Sequence (P9WKE1 whole entry): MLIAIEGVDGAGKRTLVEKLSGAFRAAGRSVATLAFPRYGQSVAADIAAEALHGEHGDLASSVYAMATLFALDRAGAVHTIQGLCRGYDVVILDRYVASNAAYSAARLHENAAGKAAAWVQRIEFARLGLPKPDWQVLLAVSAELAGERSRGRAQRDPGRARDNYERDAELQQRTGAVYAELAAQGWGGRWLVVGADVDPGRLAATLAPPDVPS
Observation type: log10 IC50 (log10 of the value in nM)
Scale type: logarithmic (base 10). Underlying IC50 unit: nM.

Completed entries (count: 2):
>>> print(df.to_string())
                                   molecule  observation_type  experimental_result
0     COc1cccc(-c2cc(SC)c(C#N)c(=O)[nH]2)c1        log10 IC50                 3.18
1  COc1cccc(-c2cc(-c3ccc(NC(C)=O)cc3)c(C#N)c(=O)[nH]2)c1        log10 IC50                 2.63

Below are some molecules; for each one, tell me its log10 IC50.
1. CS(=O)(=O)NC(=O)c1ccc(-c2c3c([nH]c(=O)c2C#N)-c2ccccc2OC3)cc1
2. CC(C)c1ccc(COc2cccc(-c3cc(-c4ccc(C(=O)O)cc4)c(C#N)c(=O)[nH]3)c2)cc1
3. CSc1cc(-c2ccccc2)nc(O)c1C#N
4. CCc1cc2[nH]c(=O)c(C#N)c(-c3ccccc3)c2c(C)n1
5. N#Cc1c(-c2ccc(C(=O)O)cc2)c2c([nH]c1=O)-c1ccccc1CC2

[0.70, 0.78, 3.28, 2.54, 0.78]

Hello, I would appreciate it if you could give log10 IC50 for each entry below.
1. CC(C)CCOc1cccc(-c2cc([S+](C)[O-])c(C#N)c(=O)[nH]2)c1 (stereo not drawn)
2. CSc1cc(-c2cccc(Cl)c2)[nH]c(=O)c1C#N
3. Cc1nccc2nc(O)c(C#N)cc12

2.52
3.28
5.80

Hey, can you go through the list below and give me log10 IC50 for every item?
1. CSc1cc(-c2ccccn2)[nH]c(=O)c1C#N
2. N#Cc1c(-c2ccc(C(=O)O)cc2)c2c([nH]c1=O)-c1cccc(O)c1CC2
3. C[S+]([O-])c1cc(-c2cccc(Br)c2)[nH]c(=O)c1C#N (stereo not drawn)
4. CCNC(=O)Nc1ccc(-c2cc(-c3cccc(OC)c3)[nH]c(=O)c2C#N)cc1

1: 4.26; 2: 0.48; 3: 2.15; 4: 2.40

Consider the following items and state reported log10 IC50 for each.
1. CCc1cc2[nH]c(=O)c(C)c(C)c2c(CC)n1
2. CCCc1cc2[nH]c(=O)c(C#N)c(-c3ccc(NS(C)(=O)=O)cc3)c2c(C)n1
3. C[S+]([O-])c1cc(-c2cccc(OC(F)(F)F)c2)[nH]c(=O)c1C#N (stereo not drawn)
4. CS(=O)(=O)c1cc(-c2cccc(OCc3cccc(Cl)c3)c2)[nH]c(=O)c1C#N
5. CC(C)c1ccc(COc2cccc3c2CCc2c-3[nH]c(=O)c(C#N)c2-c2ccc(C(=O)O)cc2)cc1
6. CCCc1cc2[nH]c(=O)c(C#N)c(-c3ccccc3)c2c(C)n1

1. 5.12
2. 3.32
3. 2.38
4. 1.34
5. 0.00
6. 3.00

###

# Tgt: Thymidylate kinase (Mycobacterium tuberculosis, UniProt P9WKE1)
pIC50: −log10 of the molar value.
Use 6 as the dividing line for pIC50, with the line itself on the 1.0 side and lower values as 0.0.

                                   compound  assigned_category
0       COc1ccccc1-c1cc(SC)c(C#N)c(=O)[nH]1                0.0
1  CS(=O)(=O)c1cc(-c2cccc(Br)c2)[nH]c(=O)c1                0.0
2  CC(C)c1ccc(COc2cccc(-c3cc([S+](C)[O-])c(C#N)c(=O)[nH]3)c2)cc1 (stereo not drawn)                1.0
3  COc1cccc(-c2cc(-c3cccc(C(=O)O)c3)c(C#N)c(=O)[nH]2)c1                0.0

Answer whether pIC50 of COc1cccc(-c2cc(-c3cccnc3)c(C#N)c(=O)[nH]2)c1 is greater than or equal to 6.
0.0

Check the entry N#Cc1c(-c2ccc(C(=O)NS(=O)(=O)c3ccccc3)cc2)c2c([nH]c1=O)-c1ccccc1OC2 : does pIC50 equal or exceed 6?
1.0

Please check the record COc1cccc2c1CCc1c-2[nH]c(=O)c(C#N)c1-c1ccc(C(=O)O)cc1 and state if its pIC50 is at or above 6.
1.0

Is pIC50 at least 6? Consider CSc1cc(-c2cccs2)[nH]c(=O)c1C#N
0.0

Test whether the compound CCc1cc2[nH]c(=O)c(C#N)c(-c3ccc(NS(C)(=O)=O)cc3)c2c(C)n1 records pIC50 of 6 or higher.
1.0

Entry CS(=O)(=O)c1c2c([nH]c(=O)c1C#N)-c1ccccc1OC2 : is its pIC50 no less than 6?
0.0

Decide: is the reported value of pIC50 for COc1cccc(-c2nc(SC)c(C#N)c(=O)[nH]2)c1 equal to or greater than 6?
0.0

###

# Tgt: Thymidylate kinase (Mycobacterium tuberculosis, UniProt P9WKE1)
# Sequence (P9WKE1 whole entry): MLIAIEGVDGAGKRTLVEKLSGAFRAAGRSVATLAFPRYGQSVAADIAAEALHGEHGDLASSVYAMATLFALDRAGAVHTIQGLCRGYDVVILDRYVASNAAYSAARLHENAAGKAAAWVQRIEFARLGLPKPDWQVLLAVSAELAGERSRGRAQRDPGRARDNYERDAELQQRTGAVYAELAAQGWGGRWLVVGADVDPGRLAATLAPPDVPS
pIC50: −log10 of the molar value.
Classify as follows. Reported pIC50 greater than or equal to 6: met. Reported pIC50 below: not met.

In [3]: df
Out[3]:
                compound_structure_string  assigned_category
0  CSc1cc(-c2cccc(Cl)c2)[nH]c(=O)c1C(N)=O            not met

Please tell me: is the compound CS(=O)(=O)c1cc(-c2cccc(Br)c2)[nH]c(=O)c1C#N at or over 6 in terms of pIC50?
met

Could you verify whether the entry CSc1cc(-c2cccs2)oc(=O)c1C#N shows pIC50 of no less than 6?
not met

Can COc1cccc(-c2cc(-c3ccc(C(=O)O)cc3)c(C#N)c(=O)[nH]2)c1 be said to have pIC50 at or above 6?
met

Please check the record N#Cc1c(-c2ccc(C(=O)O)cc2)c2c([nH]c1=O)-c1cccc(-c3cn[nH]c3)c1CC2 and state if its pIC50 is at or above 6.
met

Assess whether reported pIC50 for CCNC(=O)Nc1ccc(-c2c3c([nH]c(=O)c2C#N)-c2cccc(OC)c2CC3)cc1 sits at 6 or higher.
met

# check: pIC50 of CCCc1cc2[nH]c(=O)ccc2c(C)n1 is greater than or equal to 6
not met

# check: pIC50 of COc1ccc(-c2cc(SC)c(C#N)c(=O)[nH]2)cc1 is greater than or equal to 6
not met

###

Notes on IC50 obtained with Thymidylate kinase (Mycobacterium tuberculosis, UniProt P9WKE1).
Show the value, then the unit it is measured in.

// solved cases for IC50 follow
                                   compound  observation_type  experimental_result
0  COc1cccc(-c2cc(-c3ccc(C(=O)O)cc3)c(C)c(=O)[nH]2)c1              IC50               1.2 µM
1  COc1cccc(-c2cc(-c3cccc(N)c3)c(C#N)c(=O)[nH]2)c1              IC50               1.2 µM
2  COc1cccc(-c2cc(-c3ccc(N)cc3)c(C#N)c(=O)[nH]2)c1              IC50              1.01 µM

Would you kindly look at the next entry?
# return recorded IC50 for entry C[S+]([O-])c1cc(-c2cccs2)[nH]c(=O)c1C#N (centres undefined)
0.82 µM
